- Tested on: Candida albicans
- assayComment: Antifungal activity against FLC-resistant Candida albicans 901 assessed as fungal growth inhibition incubated for 72 hrs by CLSI based susceptibility test
- Assay type: functional
List of MIC50 values.
Numbers only; they are read as µg/mL.

Below: 2 molecules and their reported MIC50.
> print(dat)
                                   molecule  quantitativereadout
1  COC(=O)[C@@H](Cn1cncn1)NCc1cccc(OCc2cccc(-c3ccccc3)c2C)c1                    2
2  CC(=O)N1CCN(c2ccc(OCC3COC(Cn4ccnc4)(c4ccc(Cl)cc4Cl)O3)cc2)CC1 (stereo not given)                    4

Consider the molecule CC(C)OC(=O)[C@@H](Cn1ccnc1)NC(=O)C1CCCN(C(=O)c2cccc(-c3ccccc3)c2)C1 (stereo not given in full) and give its measured MIC50.
4
